# CONDITION DETAILS: in n-propanol, 283.15 K
ATTRIBUTE MEASURED: solubility (mole fraction)

Look up solubility (mole fraction): Nc1ncnc2c1ncn2CCOCP(=O)(O)O
0.000235

---

# CONDITION DETAILS: in methanol, 313.15 K
ATTRIBUTE MEASURED: solubility (mole fraction)

What does the record list as solubility (mole fraction) for Nc1ncnc2c1ncn2CCOCP(=O)(O)O ?
0.000915

---

# CONDITION DETAILS: in DMF, 283.15 K
ATTRIBUTE MEASURED: solubility (mole fraction)
In your answer, state the number alone without any accompanying words.

Could you share which solubility (mole fraction) value was measured for Nc1ncnc2c1ncn2CCOCP(=O)(O)O ?
0.000203

---

# CONDITION DETAILS: in toluene, 288.15 K
ATTRIBUTE MEASURED: solubility (mole fraction)
A bare number is all that is needed in reply.

Consider the molecule shown here: Nc1ncnc2c1ncn2CCOCP(=O)(O)O What is its recorded solubility (mole fraction)?
8.7e-05

---

# CONDITION DETAILS: in acetone, 298.15 K
ATTRIBUTE MEASURED: solubility (mole fraction)
Give your answer as a number; write no unit.

Can you look up the measured solubility (mole fraction) of Nc1ncnc2c1ncn2CCOCP(=O)(O)O for me?
0.000231

---

# CONDITION DETAILS: in isobutanol, 283.15 K
ATTRIBUTE MEASURED: solubility (mole fraction)
Respond numerically, and do not add a unit to the figure.

# get_value(readout='solubility (mole fraction)', item= Nc1ncnc2c1ncn2CCOCP(=O)(O)O )
0.000211

---

# CONDITION DETAILS: in n-heptane, 308.15 K
ATTRIBUTE MEASURED: solubility (mole fraction)
Lab note: record the figure alone, no unit after it.

Request the reported solubility (mole fraction) associated with Nc1ncnc2c1ncn2CCOCP(=O)(O)O
0.000394

---

# CONDITION DETAILS: in n-heptane, 293.15 K
ATTRIBUTE MEASURED: solubility (mole fraction)
The answer should be a number; do not append a unit.

Name the reported solubility (mole fraction) value associated with the compound Nc1ncnc2c1ncn2CCOCP(=O)(O)O
0.000217

---

# CONDITION DETAILS: in DMF, 313.15 K
ATTRIBUTE MEASURED: solubility (mole fraction)
Just the number.

Looking for the measured solubility (mole fraction) of Nc1ncnc2c1ncn2CCOCP(=O)(O)O , can you help?
0.00254

---

# CONDITION DETAILS: in toluene, 303.15 K
ATTRIBUTE MEASURED: solubility (mole fraction)
Just the number, please.

// returns reported solubility (mole fraction) for input Nc1ncnc2c1ncn2CCOCP(=O)(O)O
0.000185

---

# CONDITION DETAILS: in n-heptane, 318.15 K
ATTRIBUTE MEASURED: solubility (mole fraction)
Just the number.

Request the reported solubility (mole fraction) associated with Nc1ncnc2c1ncn2CCOCP(=O)(O)O
0.00057

---

# CONDITION DETAILS: in methanol, 293.15 K
ATTRIBUTE MEASURED: solubility (mole fraction)
Give your answer as a number; write no unit.

Name the recorded solubility (mole fraction) for Nc1ncnc2c1ncn2CCOCP(=O)(O)O .
0.000523

---

# CONDITION DETAILS: in n-propanol, 298.15 K
ATTRIBUTE MEASURED: solubility (mole fraction)

Name the reported solubility (mole fraction) value associated with the compound Nc1ncnc2c1ncn2CCOCP(=O)(O)O
0.000409

---

# CONDITION DETAILS: in DMF, 288.15 K
ATTRIBUTE MEASURED: solubility (mole fraction)

What does the record list as solubility (mole fraction) for Nc1ncnc2c1ncn2CCOCP(=O)(O)O ?
0.000318

---

# CONDITION DETAILS: in n-propanol, 293.15 K
ATTRIBUTE MEASURED: solubility (mole fraction)
Enter the number alone.

Tell me the measured solubility (mole fraction) of Nc1ncnc2c1ncn2CCOCP(=O)(O)O , please.
0.000343

---

# CONDITION DETAILS: in DMF, 318.15 K
ATTRIBUTE MEASURED: solubility (mole fraction)

Find the recorded solubility (mole fraction) belonging to Nc1ncnc2c1ncn2CCOCP(=O)(O)O and report it.
0.00368

---

# CONDITION DETAILS: in n-propanol, 288.15 K
ATTRIBUTE MEASURED: solubility (mole fraction)

Item Nc1ncnc2c1ncn2CCOCP(=O)(O)O has what recorded solubility (mole fraction)?
0.000279

---

# CONDITION DETAILS: in toluene, 313.15 K
ATTRIBUTE MEASURED: solubility (mole fraction)
// no unit, no text: just the number

Which solubility (mole fraction) is reported for this compound? Nc1ncnc2c1ncn2CCOCP(=O)(O)O
0.000295

---

# CONDITION DETAILS: in acetone, 313.15 K
ATTRIBUTE MEASURED: solubility (mole fraction)
Just the number, please, no unit attached.

// solubility (mole fraction) lookup, key: Nc1ncnc2c1ncn2CCOCP(=O)(O)O
0.000435

---

# CONDITION DETAILS: in ethanol, 278.15 K
ATTRIBUTE MEASURED: solubility (mole fraction)

Given Nc1ncnc2c1ncn2CCOCP(=O)(O)O , state its recorded solubility (mole fraction).
7.5e-05

---

# CONDITION DETAILS: in n-propanol, 318.15 K
ATTRIBUTE MEASURED: solubility (mole fraction)
# output: bare number, no unit

Look up solubility (mole fraction): Nc1ncnc2c1ncn2CCOCP(=O)(O)O
0.0008

---

# CONDITION DETAILS: in n-heptane, 313.15 K
ATTRIBUTE MEASURED: solubility (mole fraction)
Keep it simple and answer with nothing but the number.

Recorded solubility (mole fraction) of Nc1ncnc2c1ncn2CCOCP(=O)(O)O , please.
0.000473

---

# CONDITION DETAILS: in methanol, 278.15 K
ATTRIBUTE MEASURED: solubility (mole fraction)

So what's the measured solubility (mole fraction) for this one? Nc1ncnc2c1ncn2CCOCP(=O)(O)O
0.000352

---

# CONDITION DETAILS: in n-propanol, 308.15 K
ATTRIBUTE MEASURED: solubility (mole fraction)
Respond numerically, and do not add a unit to the figure.

Please give the measured solubility (mole fraction) for this compound: Nc1ncnc2c1ncn2CCOCP(=O)(O)O
0.00058

---

# CONDITION DETAILS: in toluene, 283.15 K
ATTRIBUTE MEASURED: solubility (mole fraction)
Give your answer as a number; write no unit.

Item under review: Nc1ncnc2c1ncn2CCOCP(=O)(O)O . Reported solubility (mole fraction)?
6.5e-05

---

# CONDITION DETAILS: in ethanol, 303.15 K
ATTRIBUTE MEASURED: solubility (mole fraction)
Output: the number by itself.

Given Nc1ncnc2c1ncn2CCOCP(=O)(O)O , state its recorded solubility (mole fraction).
0.000237

---

# CONDITION DETAILS: in acetone, 288.15 K
ATTRIBUTE MEASURED: solubility (mole fraction)
Give the figure by itself; no unit, no explanation.

For Nc1ncnc2c1ncn2CCOCP(=O)(O)O , what is its reported solubility (mole fraction)?
0.000145

---

# CONDITION DETAILS: in isobutanol, 318.15 K
ATTRIBUTE MEASURED: solubility (mole fraction)
# respond with the number and nothing more

Need solubility (mole fraction) of Nc1ncnc2c1ncn2CCOCP(=O)(O)O , thanks.
0.00069

---

# CONDITION DETAILS: in isobutanol, 298.15 K
ATTRIBUTE MEASURED: solubility (mole fraction)
Give the figure by itself; no unit, no explanation.

Report solubility (mole fraction) for Nc1ncnc2c1ncn2CCOCP(=O)(O)O please.
0.000365

---

# CONDITION DETAILS: in n-heptane, 278.15 K
ATTRIBUTE MEASURED: solubility (mole fraction)
Reply with just the number.

Recorded solubility (mole fraction) for Nc1ncnc2c1ncn2CCOCP(=O)(O)O , please?
0.000127

---

# CONDITION DETAILS: in n-propanol, 323.15 K
ATTRIBUTE MEASURED: solubility (mole fraction)
// no unit string in output, number only

State the recorded solubility (mole fraction) for this entry: Nc1ncnc2c1ncn2CCOCP(=O)(O)O
0.00093

---

# CONDITION DETAILS: in ethanol, 293.15 K
ATTRIBUTE MEASURED: solubility (mole fraction)
Give the figure only, with no unit attached.

Please look up its solubility (mole fraction): Nc1ncnc2c1ncn2CCOCP(=O)(O)O
0.000154

---

# CONDITION DETAILS: in ethanol, 313.15 K
ATTRIBUTE MEASURED: solubility (mole fraction)
The answer should be a number; do not append a unit.

Reported solubility (mole fraction), compound Nc1ncnc2c1ncn2CCOCP(=O)(O)O : ____
0.000342
